The following are reported AC50 results, target or system Type-1 angiotensin II receptor (Homo sapiens). Note: assay procedure not described here.

Here's what some known entries look like.
>>> df
                                   compound   result
0  Cn1cc(C(=O)[C@@H]2CCc3nc[nH]c3C2)c2ccccc21 [RAMOSETRON]  > 30 µM
1  O=c1[nH]c2ccccc2n1CCCN1CCN(C(c2ccccc2)c2ccccc2)CC1 [OXATOMIDE]    17 µM
2  Cc1ccccc1N1C(=O)c2cc(S(N)(=O)=O)c(Cl)cc2NC1C (centres undefined) [METOLAZONE]  > 10 µM

Exercise: Using the record for O=C1c2cccc3c2[C@H](CCC3)CN1[C@@H]1CN2CCC1CC2 [PALONOSETRON] , report its AC50.
Key: > 30 µM

Exercise: Using the record for Clc1ccc(Cn2c(CN3CCCC3)nc3ccccc32)cc1 [CLEMIZOLE] , report its AC50.
Key: > 30 µM

Exercise: Using the record for CCOC(=O)C1=C(C)NC(C)=C(C(=O)OCC)C1c1ccccc1/C=C/C(=O)OC(C)(C)C [LACIDIPINE] , report its AC50.
Key: > 30 µM

Exercise: Using the record for `CCOc1cc([C@@H](CS(C)(=O)=O)N2C(=O)c3cccc(NC(C)=O)c3C2=O)ccc1OC` , report its AC50.
Key: > 30 µM

Exercise: Using the record for O=C(O)Cc1ccccc1Nc1c(Cl)cccc1Cl [DICLOFENAC] , report its AC50.
Key: > 30 µM

Exercise: Using the record for CC1=C(/C=C/C(C)=C/C=C/C(C)=C/CO)C(C)(C)CCC1 [RETINOL] , report its AC50.
Key: > 30 µM

* * *

Entries and their AC50
# target-or-test-system: Voltage-dependent L-type calcium channel subunit alpha-1C (Rattus norvegicus); note: assay procedure not described here
# Sequence (P22002 whole entry): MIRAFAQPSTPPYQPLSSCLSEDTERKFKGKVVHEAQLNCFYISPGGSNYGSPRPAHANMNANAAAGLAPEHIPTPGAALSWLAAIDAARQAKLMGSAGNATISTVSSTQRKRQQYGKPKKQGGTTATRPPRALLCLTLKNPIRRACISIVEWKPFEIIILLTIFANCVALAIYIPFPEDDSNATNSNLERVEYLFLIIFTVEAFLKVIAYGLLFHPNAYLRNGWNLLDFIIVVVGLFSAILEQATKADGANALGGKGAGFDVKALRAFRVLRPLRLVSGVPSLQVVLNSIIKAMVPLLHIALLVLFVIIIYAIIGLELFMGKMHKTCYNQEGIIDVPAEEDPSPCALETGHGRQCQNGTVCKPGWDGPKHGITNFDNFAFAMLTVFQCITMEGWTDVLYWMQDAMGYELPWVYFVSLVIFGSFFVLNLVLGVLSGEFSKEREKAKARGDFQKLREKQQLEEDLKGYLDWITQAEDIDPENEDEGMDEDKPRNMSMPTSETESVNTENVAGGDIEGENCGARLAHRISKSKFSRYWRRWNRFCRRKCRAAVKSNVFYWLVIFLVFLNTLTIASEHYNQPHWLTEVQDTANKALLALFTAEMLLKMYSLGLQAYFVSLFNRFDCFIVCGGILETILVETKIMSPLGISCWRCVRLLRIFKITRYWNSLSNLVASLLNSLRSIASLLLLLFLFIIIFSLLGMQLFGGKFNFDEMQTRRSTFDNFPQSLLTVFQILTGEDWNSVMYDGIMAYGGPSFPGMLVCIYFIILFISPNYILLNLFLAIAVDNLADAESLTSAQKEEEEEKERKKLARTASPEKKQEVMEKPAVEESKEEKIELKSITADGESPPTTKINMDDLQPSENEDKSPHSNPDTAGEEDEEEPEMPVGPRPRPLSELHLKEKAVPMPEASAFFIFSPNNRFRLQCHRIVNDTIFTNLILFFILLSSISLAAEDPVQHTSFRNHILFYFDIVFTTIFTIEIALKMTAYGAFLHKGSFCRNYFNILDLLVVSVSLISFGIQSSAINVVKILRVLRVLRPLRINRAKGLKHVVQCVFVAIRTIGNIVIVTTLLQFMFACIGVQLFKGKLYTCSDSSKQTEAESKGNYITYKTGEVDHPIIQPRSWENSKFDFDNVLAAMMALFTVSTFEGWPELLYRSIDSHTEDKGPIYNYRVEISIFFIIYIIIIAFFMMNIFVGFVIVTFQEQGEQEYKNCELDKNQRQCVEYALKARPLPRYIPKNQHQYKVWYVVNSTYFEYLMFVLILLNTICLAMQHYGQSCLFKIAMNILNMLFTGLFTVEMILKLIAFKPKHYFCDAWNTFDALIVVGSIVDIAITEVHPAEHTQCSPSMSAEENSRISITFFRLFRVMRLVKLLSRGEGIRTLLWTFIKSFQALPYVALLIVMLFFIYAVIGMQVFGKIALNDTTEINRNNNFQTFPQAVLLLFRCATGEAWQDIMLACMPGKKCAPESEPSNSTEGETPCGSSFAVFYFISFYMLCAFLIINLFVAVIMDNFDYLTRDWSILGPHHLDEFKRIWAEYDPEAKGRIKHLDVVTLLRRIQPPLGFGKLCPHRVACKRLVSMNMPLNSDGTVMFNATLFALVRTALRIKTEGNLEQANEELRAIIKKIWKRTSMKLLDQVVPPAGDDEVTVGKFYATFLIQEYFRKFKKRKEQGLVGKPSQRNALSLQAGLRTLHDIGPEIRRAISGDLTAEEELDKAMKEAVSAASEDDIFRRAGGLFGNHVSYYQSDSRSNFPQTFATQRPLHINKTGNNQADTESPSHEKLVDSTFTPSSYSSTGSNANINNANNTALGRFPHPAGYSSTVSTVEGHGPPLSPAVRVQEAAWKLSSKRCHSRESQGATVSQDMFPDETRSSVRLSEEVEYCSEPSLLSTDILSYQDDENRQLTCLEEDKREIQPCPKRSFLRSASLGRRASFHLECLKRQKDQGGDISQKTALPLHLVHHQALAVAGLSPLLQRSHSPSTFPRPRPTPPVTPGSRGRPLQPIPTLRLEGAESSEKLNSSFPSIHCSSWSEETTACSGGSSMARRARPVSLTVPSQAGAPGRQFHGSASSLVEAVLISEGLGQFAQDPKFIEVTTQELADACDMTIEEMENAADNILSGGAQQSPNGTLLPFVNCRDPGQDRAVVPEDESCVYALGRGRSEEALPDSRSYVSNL
# Assay type: functional

Here's what some known entries look like.
compound	AC50
CCOC(=O)c1c(CSc2ccccc2)n(C)c2cc(Br)c(O)c(CN(C)C)c12 [UMIFENOVIR]	> 30 µM
CCCCCCCN(CC)CCCC(O)c1ccc(NS(C)(=O)=O)cc1 (centres undefined) [IBUTILIDE]	> 30 µM
CCCN1CCCC[C@H]1C(=O)Nc1c(C)cccc1C [ROPIVACAINE]	> 30 µM
Oc1cc(O)c(Cl)cn1	> 30 µM
O=C(O)c1ccc(NC(=O)[C@H](Cc2ccc(O)cc2)NC(=O)c2ccccc2)cc1 [BENTIROMIDE]	> 10 µM

Exercise: Using the record for `C[N+]1(C)CCC(=C(c2ccccc2)c2ccccc2)CC1` , report its AC50.
Key: > 10 µM

* * *

The following are reported AC50 results, target or system UniProt P34969.
Sequence (P34969 whole entry): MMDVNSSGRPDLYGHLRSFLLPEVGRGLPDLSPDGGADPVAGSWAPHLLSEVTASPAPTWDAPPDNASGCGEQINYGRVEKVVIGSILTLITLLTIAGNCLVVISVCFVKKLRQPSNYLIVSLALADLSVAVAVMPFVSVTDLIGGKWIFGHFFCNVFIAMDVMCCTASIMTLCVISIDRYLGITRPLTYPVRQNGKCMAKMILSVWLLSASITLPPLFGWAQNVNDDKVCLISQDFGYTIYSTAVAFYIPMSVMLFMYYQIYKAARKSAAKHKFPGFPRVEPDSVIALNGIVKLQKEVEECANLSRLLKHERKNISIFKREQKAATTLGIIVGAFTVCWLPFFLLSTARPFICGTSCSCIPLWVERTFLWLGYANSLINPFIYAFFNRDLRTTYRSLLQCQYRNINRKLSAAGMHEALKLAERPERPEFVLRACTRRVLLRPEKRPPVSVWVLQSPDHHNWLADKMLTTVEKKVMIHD

Here's what some known entries look like.
compound	AC50
O=C(/C=C/c1cccc(S(=O)(=O)Nc2ccccc2)c1)NO [BELINOSTAT]	> 10 µM
CN(C)CCCN1c2ccccc2CCc2ccccc21 [IMIPRAMINE]	> 10 µM
Fc1ccc([C@@H]2CCNC[C@H]2COc2ccc3c(c2)OCO3)cc1 [PAROXETINE]	> 10 µM

# next compound below
Exercise: Query for UniProt P34969: what AC50 does the record show for C[C@@H]1C[C@H]2[C@@H]3C[C@H](F)C4=CC(=O)C=C[C@]4(C)[C@@]3(F)[C@@H](O)C[C@]2(C)[C@@]1(OC(=O)c1ccco1)C(=O)SCF [FLUTICASONE FUROATE] ?
Key: > 10 µM
